Where these numbers come from: patent US20240123070A1

Please provide measured TCR Mut RLU/WT RLU for the entries that follow.
test-system: KRAS G13D antigen (G13D-RT6, SEQ ID NO: 20) loaded on Lovo-DPA0301:DPB0501 cells (human)
protocol-text: cell-based or functional assay
Give bare numbers, in ratio.

>  <binder>
B8.2.4 TCR mutant β95Q-I (TCR, V domains shown) V domain 1: AQKITQTQPGMFVQEKEAVTLDCTYDTSDPSYGLFWYKQPSSGEMIFLIYQGSYDQQNATEGRYSLNFQKARKSANLVISASQLGDSAMYFCAMRERTGTASKLTFGTGTRLQVTL V domain 2: DVKVTQSSRYLVKRTGEKVFLECVQDMDHENMFWYRQDPGLGLRLIYFSYDVKMKEKGDIPEGYSVSREKKERFSLILESASTNQTSMYLCASSITVPPQHFGDGTRLSILE

>  <result-number>
0.74

$$$$
>  <binder>
B8.2.4 TCR mutant β95Q-S (TCR, V domains shown) V domain 1: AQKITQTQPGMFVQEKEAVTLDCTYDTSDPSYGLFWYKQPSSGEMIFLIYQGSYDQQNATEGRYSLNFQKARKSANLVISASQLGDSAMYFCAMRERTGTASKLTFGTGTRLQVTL V domain 2: DVKVTQSSRYLVKRTGEKVFLECVQDMDHENMFWYRQDPGLGLRLIYFSYDVKMKEKGDIPEGYSVSREKKERFSLILESASTNQTSMYLCASSSTVPPQHFGDGTRLSILE

>  <result-number>
0.61

$$$$

Give TCR Mut RLU/WT RLU for the following binder: B8.2.4 TCR mutant β97V-H (TCR, V domains shown) V domain 1: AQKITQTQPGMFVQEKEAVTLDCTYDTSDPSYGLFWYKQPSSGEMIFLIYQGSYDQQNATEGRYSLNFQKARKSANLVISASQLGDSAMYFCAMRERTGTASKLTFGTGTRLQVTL V domain 2: DVKVTQSSRYLVKRTGEKVFLECVQDMDHENMFWYRQDPGLGLRLIYFSYDVKMKEKGDIPEGYSVSREKKERFSLILESASTNQTSMYLCASSQTHPPQHFGDGTRLSILE 0.44
